Recorded RLU, fluorescence trace by entry
# assayed.system: human TAS2R4 (Homo sapiens)
# Construct: expressed in transfected cells; host or cells: HEK293T-Gα16gust44
# method.summary: Calcium imaging assay (FLIPR), HEK293T-Gα16gust44 cells transfected with human TAS2R4; note: test concentration or dose not given here
# Assay type: cell-based
# stated.conditions: Time (s) 335.547

compound: C[C@H](CCC(=O)NCCS(=O)(=O)O)[C@H]1CC[C@H]2[C@@H]3CC[C@@H]4C[C@H](O)CC[C@]4(C)[C@H]3CC[C@]12C [Taurolithocholic Acid, taurolithocholic acid]
unit.of.measure: RLU
RLU, fluorescence trace: 109.477

compound: C[C@H](CCC(=O)O)[C@H]1CC[C@H]2[C@@H]3[C@H](O)C[C@@H]4C[C@H](O)CC[C@]4(C)[C@H]3C[C@H](O)[C@]12C [Cholic Acid, cholic acid]
unit.of.measure: RLU
RLU, fluorescence trace: 285.984

compound: C[C@H](CCC(=O)NCC(=O)O)[C@H]1CC[C@H]2[C@@H]3[C@H](O)C[C@@H]4C[C@H](O)CC[C@]4(C)[C@H]3C[C@H](O)[C@]12C [Glycocholic Acid, glycocholic acid]
unit.of.measure: RLU
RLU, fluorescence trace: 137.018

----------
Overview of reported RLU across a group of molecules:
# assayed.system: human TAS2R1 (Homo sapiens)
# Construct: expressed in transfected cells; host or cells: HEK293T-Gα16gust44
# Sequence (Q9NYW7 1-299): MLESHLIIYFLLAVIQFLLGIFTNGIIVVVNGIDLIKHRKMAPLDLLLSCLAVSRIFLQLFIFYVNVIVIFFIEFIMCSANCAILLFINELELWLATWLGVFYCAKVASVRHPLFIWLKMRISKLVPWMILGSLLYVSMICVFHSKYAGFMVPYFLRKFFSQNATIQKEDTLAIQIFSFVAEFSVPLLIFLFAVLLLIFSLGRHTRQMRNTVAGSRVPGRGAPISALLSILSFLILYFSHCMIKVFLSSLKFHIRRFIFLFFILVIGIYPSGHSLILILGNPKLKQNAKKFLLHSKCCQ
# method.summary: Calcium imaging assay (FLIPR), HEK293T-Gα16gust44 cells transfected with human TAS2R1
# Assay type: cell-based
# stated.conditions: Time 98.796 s
recorded.endpoint: RLU (RLU)

compound.string: C[C@H](CCC(=O)O)[C@H]1CC[C@H]2[C@@H]3[C@H](O)C[C@@H]4C[C@H](O)CC[C@]4(C)[C@H]3C[C@H](O)[C@]12C
quantitative.readout: 601.791
//
compound.string: C[C@H](CCC(=O)O)[C@H]1CC[C@H]2[C@@H]3[C@H](O)C[C@@H]4C[C@H](O)CC[C@]4(C)[C@H]3CC[C@]12C
quantitative.readout: 711.692
//
compound.string: C[C@H](CCC(=O)O)[C@H]1CC[C@H]2[C@@H]3[C@@H](O)C[C@@H]4C[C@H](O)CC[C@]4(C)[C@H]3CC[C@]12C
quantitative.readout: 487.253
//
compound.string: C[C@H](CCC(=O)O)[C@H]1CC[C@H]2[C@@H]3CC[C@@H]4C[C@H](O)CC[C@]4(C)[C@H]3CC[C@]12C
quantitative.readout: 898.952

----------
# assayed.system: human TAS2R4 (Homo sapiens, UniProt Q9NYW5)
# Construct: expressed in transfected cells; host or cells: HEK293T-Gα16gust44
# Sequence (Q9NYW5 whole entry): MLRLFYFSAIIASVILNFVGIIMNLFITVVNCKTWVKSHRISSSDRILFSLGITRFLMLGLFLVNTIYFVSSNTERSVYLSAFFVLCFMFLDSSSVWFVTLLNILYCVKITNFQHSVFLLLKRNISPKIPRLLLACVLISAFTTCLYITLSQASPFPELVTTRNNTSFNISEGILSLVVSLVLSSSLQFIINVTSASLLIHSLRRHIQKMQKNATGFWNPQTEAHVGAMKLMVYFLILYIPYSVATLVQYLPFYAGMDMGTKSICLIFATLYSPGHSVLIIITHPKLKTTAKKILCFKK
# method.summary: Calcium imaging assay (FLIPR), HEK293T-Gα16gust44 cells transfected with human TAS2R4; note: test concentration or dose not given here
# Type: cell-based
# stated.conditions: Time (s) 18.766 (TCA, TLCA: 18.782)
Param label: returns 1.0 when RLU, fluorescence trace < -9 RLU, returns 0.0 otherwise, including exact equality.

compound.string: C[C@H](CCC(=O)NCCS(=O)(=O)O)[C@H]1CC[C@H]2[C@@H]3CC[C@@H]4C[C@H](O)CC[C@]4(C)[C@H]3CC[C@]12C
answer.label: 0.0
--
compound.string: C[C@H](CCC(=O)NCCS(=O)(=O)O)[C@H]1CC[C@H]2[C@@H]3[C@H](O)C[C@@H]4C[C@H](O)CC[C@]4(C)[C@H]3C[C@H](O)[C@]12C
answer.label: 0.0
--
compound.string: C[C@H](CCC(=O)O)[C@H]1CC[C@H]2[C@@H]3CC[C@@H]4C[C@H](O)CC[C@]4(C)[C@H]3C[C@H](O)[C@]12C
answer.label: 1.0
--
compound.string: C[C@H](CCC(=O)O)[C@H]1CC[C@H]2[C@@H]3[C@@H](O)C[C@@H]4C[C@H](O)CC[C@]4(C)[C@H]3CC[C@]12C
answer.label: 1.0
--
compound.string: C[C@H](CCC(=O)NCC(=O)O)[C@H]1CC[C@H]2[C@@H]3[C@H](O)C[C@@H]4C[C@H](O)CC[C@]4(C)[C@H]3C[C@H](O)[C@]12C
answer.label: 1.0

----------
# assayed.system: human TAS2R14 (Homo sapiens)
# Construct: expressed in transfected cells; host or cells: HEK293T-Gα16gust44
# Sequence (Q9NYV8 whole entry): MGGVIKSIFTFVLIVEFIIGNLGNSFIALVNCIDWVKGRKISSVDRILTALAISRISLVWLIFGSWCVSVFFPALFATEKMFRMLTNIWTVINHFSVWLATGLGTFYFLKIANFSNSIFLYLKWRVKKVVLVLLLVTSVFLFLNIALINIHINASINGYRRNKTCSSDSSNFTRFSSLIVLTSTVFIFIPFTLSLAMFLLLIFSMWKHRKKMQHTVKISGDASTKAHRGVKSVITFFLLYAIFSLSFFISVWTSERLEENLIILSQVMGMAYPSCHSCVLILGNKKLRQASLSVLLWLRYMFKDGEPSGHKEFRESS
# method.summary: Calcium imaging assay (FLIPR), HEK293T-Gα16gust44 cells transfected with human TAS2R14
# Assay type: cell-based
# stated.conditions: TAS2R14 trace; Time (s) 126.797 (Chenodeoxycholic Acid 126.781)
// assign met if RLU falls strictly below 900 RLU, else not met (ties count as not met)

compound.string: C[C@H](CCC(=O)O)[C@H]1CC[C@H]2[C@@H]3[C@H](O)C[C@@H]4C[C@H](O)CC[C@]4(C)[C@H]3C[C@H](O)[C@]12C
answer.label: not met
--
compound.string: C[C@H](CCC(=O)NCCS(=O)(=O)O)[C@H]1CC[C@H]2[C@@H]3[C@H](O)C[C@@H]4C[C@H](O)CC[C@]4(C)[C@H]3C[C@H](O)[C@]12C
answer.label: not met
--
compound.string: C[C@H](CCC(=O)NCCS(=O)(=O)O)[C@H]1CC[C@H]2[C@@H]3CC[C@@H]4C[C@H](O)CC[C@]4(C)[C@H]3CC[C@]12C
answer.label: met
--
compound.string: C[C@H](CCC(=O)NCC(=O)O)[C@H]1CC[C@H]2[C@@H]3[C@H](O)C[C@@H]4C[C@H](O)CC[C@]4(C)[C@H]3C[C@H](O)[C@]12C
answer.label: not met
--
compound.string: C[C@H](CCC(=O)O)[C@H]1CC[C@H]2[C@@H]3[C@H](O)C[C@@H]4C[C@H](O)CC[C@]4(C)[C@H]3CC[C@]12C
answer.label: met

----------
# assayed.system: human TAS2R4 (Homo sapiens, UniProt Q9NYW5)
# Construct: expressed in transfected cells; host or cells: HEK293T-Gα16gust44
# method.summary: Calcium imaging assay (FLIPR), HEK293T-Gα16gust44 cells transfected with human TAS2R4; note: test concentration or dose not given here
# Type: cell-based
# stated.conditions: Time (s) 4
The entries below come with measured RLU, fluorescence trace values attached.
recorded.endpoint: RLU, fluorescence trace (RLU)

compound: C[C@H](CCC(=O)O)[C@H]1CC[C@H]2[C@@H]3[C@H](O)C[C@@H]4C[C@H](O)CC[C@]4(C)[C@H]3C[C@H](O)[C@]12C [Cholic Acid, cholic acid]
quantitative.readout: 0.3953
//
compound: C[C@H](CCC(=O)NCCS(=O)(=O)O)[C@H]1CC[C@H]2[C@@H]3CC[C@@H]4C[C@H](O)CC[C@]4(C)[C@H]3CC[C@]12C [Taurolithocholic Acid, taurolithocholic acid]
quantitative.readout: -10.9022
//
compound: C[C@H](CCC(=O)NCCS(=O)(=O)O)[C@H]1CC[C@H]2[C@@H]3[C@H](O)C[C@@H]4C[C@H](O)CC[C@]4(C)[C@H]3C[C@H](O)[C@]12C [Taurocholic Acid, taurocholic acid]
quantitative.readout: 12.8274

----------
# assayed.system: human TAS2R1 (Homo sapiens, UniProt Q9NYW7)
# Construct: expressed in transfected cells; host or cells: HEK293T-Gα16gust44
# method.summary: Calcium imaging assay (FLIPR), HEK293T-Gα16gust44 cells transfected with human TAS2R1
# Type: cell-based
# stated.conditions: Time 4.015 s
# Description: This set of bile acids was chosen because of their commercial availability in high purities, their diversity within the class of bile acids and their previous detection and quantitation in human blood. Stock solutions were prepared in DMSO. […] Measured data were negative control corrected by subtracting the signal of the mock-transfected cells and exported to Microsoft Excel using the FLIPR software ScreenWorks 4.2. […]
Catalogue of RLU values

compound.string: C[C@H](CCC(=O)O)[C@H]1CC[C@H]2[C@@H]3CC[C@@H]4C[C@H](O)CC[C@]4(C)[C@H]3CC[C@]12C
unit.of.measure: RLU
RLU: -7.128
//
compound.string: C[C@H](CCC(=O)O)[C@H]1CC[C@H]2[C@@H]3[C@H](O)C[C@@H]4C[C@H](O)CC[C@]4(C)[C@H]3C[C@H](O)[C@]12C
unit.of.measure: RLU
RLU: -20.7803
//
compound.string: C[C@H](CCC(=O)O)[C@H]1CC[C@H]2[C@@H]3[C@H](O)C[C@@H]4C[C@H](O)CC[C@]4(C)[C@H]3CC[C@]12C
unit.of.measure: RLU
RLU: 1.217
//
compound.string: C[C@H](CCC(=O)O)[C@H]1CC[C@H]2[C@@H]3[C@@H](O)C[C@@H]4C[C@H](O)CC[C@]4(C)[C@H]3CC[C@]12C
unit.of.measure: RLU
RLU: -10.1979
